Biological target: S1R (Rattus norvegicus)
Sequence (Q9R0C9 whole entry): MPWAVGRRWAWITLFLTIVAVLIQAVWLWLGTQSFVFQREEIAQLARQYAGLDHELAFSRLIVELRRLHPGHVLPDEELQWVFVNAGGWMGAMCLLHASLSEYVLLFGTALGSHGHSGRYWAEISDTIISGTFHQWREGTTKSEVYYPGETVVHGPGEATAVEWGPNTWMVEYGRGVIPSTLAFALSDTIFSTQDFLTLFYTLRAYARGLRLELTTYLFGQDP
observation-type: Ki (nM)
Numbers only; they are read as nM.

Solved entries:
O=C(CN1CCC(Cc2ccccc2)CC1)N1CCN(c2ccc(O)cc2)CC1 | 24
O=C(CN1CCC(Cc2ccccc2)CC1)N1CCN(c2ccccc2)CC1 | 3.2

API: the following record is the query input.
// assay S1R (Rattus norvegicus), entry "O=C(Cc1ccccc1Br)N1CCN(Cc2ccc(F)cc2)CC1" , Ki value = 366
